- assay_protocol: In vivo clearance of tyrosyl-arginine after intravenous bolus in rats
- Set-up: species or system Sprague Dawley rats
- run_conditions: Sprague Dawley, rat, 82.1 μg/g rat, anaesthetised rats, intravenous bolus of tyrosyl-arginine into a central vein, read-out: approximate half life (in vivo clearance) (converted)
- Protocol: In vivo clearance was assessed in five large (370 g) mature (122 days old) Sprague Dawley rats. The animals were anaesthetised with sodium pentabarbitone and remained anaesthetised during the entire procedure. A large bolus of tyrosyl-arginine (82.1 2.8 μg/g rat, Mean SD) was injected intravenously into a central vein and rapid blood samples (n=11) (total volume=2.0 ml) were obtained through a central venous catheter over 20 minutes. […]
recorded_metric: half-life

N=C(N)NCCC[C@H](NC(=O)[C@@H](N)Cc1ccc(O)cc1)C(=O)O; ~0.5 min

# credit: patent US5122515A
